Measured half-life by item
assay: in vivo; details: mouse, iv, 3 mg/kg
Note: unit min is implicit; provide only the numeric part.

- compound: "CC1=C(CC(=O)O)c2cc(F)ccc2/C1=C\\c1ccc([S+](C)[O-])cc1 (centres undefined)"
  quantitative_readout: 72
- compound: "O=C(O)Cc1ccccc1Nc1c(Cl)cccc1Cl"
  quantitative_readout: 36
- compound: "Nc1nnc(-c2cccc(Cl)c2Cl)c(N)n1"
  quantitative_readout: 606

Note to self: half-life recorded for Nc1ncc2ncn(CCC(CO)CO)c2n1 was 6

====

experiment: Total clearance in chimeric mouse with humanized liver at 0.3 mg/kg, iv by LC-MS/MS method; format: ADME, organism-based; parameters: dose 0.3 mg/kg, route intravenous; conditions: in vivo
readout: clearance (mL/min/kg)
Note: unit mL/min/kg is implicit; provide only the numeric part.

Lab note: measured clearance of CC(=O)C[C@@H](c1ccccc1)c1c(O)c2ccccc2oc1=O was 0.2

====

assay: clinical; details: human, in vivo, iv
Description: Total clearance in iv dosed human
readout: clearance (mL/h/kg)
Please state the figure in mL/h/kg; there is no need to write the unit.

Entry CC(=O)C[C@@H](c1ccccc1)c1c(O)c2ccccc2oc1=O — recorded clearance = 3.3

====

experiment: Total clearance in chimeric mouse with humanized liver at 3 mg/kg, iv by LC-MS/MS method; assay type: ADME, organism-based; design: dose 3 mg/kg, route intravenous; conditions: in vivo
Recorded log10(clearance) values for a group of compounds are listed next.
Scale type: logarithmic (base 10). Underlying clearance unit: L/h/kg.

// worked examples, log10(clearance) included
- compound: "Nc1ncc2ncn(CCC(CO)CO)c2n1 [6-DEOXY PENCICLOVIR]"
  log10(clearance): 0.63
- compound: "O=C(O)Cc1ccccc1Nc1c(Cl)cccc1Cl [DICLOFENAC]"
  log10(clearance): -0.01
- compound: "CC1=C(CC(=O)O)c2cc(F)ccc2/C1=C\\c1ccc([S+](C)[O-])cc1 (configuration not stated)"
  log10(clearance): -0.47

Record CCN(C(C)=O)c1cccc(-c2ccnc3c(C#N)cnn23)c1 [ZALEPLON] , field log10(clearance): 0.46

# log10(clearance) of Nc1ccc(S(=O)(=O)c2ccc(N)cc2)cc1 [DAPSONE] = -0.90

The compound listed as Nc1nnc(-c2cccc(Cl)c2Cl)c(N)n1 [LAMOTRIGINE] has a reported log10(clearance) of -1.08

Kindly note the recorded log10(clearance) for CN1CCN2c3ncccc3Cc3ccccc3C2C1 (configuration not stated) [MIRTAZAPINE] , which is 0.26
